Provide the reported viscosity of each item.
ASSAY DETAILS: xn = mol fraction of the nth substance listed
RUN PARAMETERS: 323.15 K; 101.3 kPa; x1 = 0.9
A number alone suffices; assume mPa·s.

// query viscosity value for entry C=C[n+]1ccn(CCCC)c1.N[C@@H](Cc1c[nH]cn1)C(=O)[O-] + O
930

// query viscosity value for entry C=C[n+]1ccn(CCCC)c1.N[C@@H](CO)C(=O)[O-] + O
820

// query viscosity value for entry C=C[n+]1ccn(CCCC)c1.NCCCC[C@H](N)C(=O)[O-] + O
950

// query viscosity value for entry C=Cn1cc[n+](CCCC)c1.NCC(=O)[O-] + O
570
